From: ChEMBL document CHEMBL1122854

Here the recorded Toxic is given for each entry.
System: Trypanosoma brucei rhodesiense
Experiment: Antitrypanosomal activity was evaluated against Trypanosoma rhodesiense infections in mice, at dose 26 mg/kg, administered subcutaneously;Toxic
Assay type: functional
Conditions: route subcutaneous
parameterMeasured: Toxic

Cc1cc(S(=O)(=O)c2ccc(N3C(N)=NC(N)=NC3(C)C)cc2)ccc1N1C(N)=NC(N)=NC1(C)C.Cl.Cl; 4
CC1(C)N=C(N)N=C(N)N1c1ccc(OCCOc2ccc(N3C(N)=NC(N)=NC3(C)C)cc2)cc1.Cl.Cl; 4
CC1(C)N=C(N)N=C(N)N1c1ccc(Sc2ccc(N3C(N)=NC(N)=NC3(C)C)cc2)cc1.Cl.Cl; 1
CC1(C)N=C(N)N=C(N)N1c1ccc(NC(=O)Nc2ccc(N3C(N)=NC(N)=NC3(C)C)cc2)cc1.Cl.Cl; 1
Cc1ccc(NC(=O)Nc2ccc(C)c(N3C(N)=NC(N)=NC3(C)C)c2)cc1N1C(N)=NC(N)=NC1(C)C.Cl.Cl; 2
CC1(C)N=C(N)N=C(N)N1c1ccc(OCCCCOc2ccc(N3C(N)=NC(N)=NC3(C)C)cc2)cc1.Cl.Cl; 1
CC(C)(c1ccc(N2C(N)=NC(N)=NC2(C)C)cc1)c1ccc(N2C(N)=NC(N)=NC2(C)C)cc1.Cl.Cl; 1

###

Test system: Mus musculus
Assay: Antitrypanosomal activity was evaluated against Trypanosoma rhodesiense infections in mice, at dose 13 mg/kg, administered subcutaneously;Cures
Format: functional
Settings: route subcutaneous
parameterMeasured: Cures

CC1(C)N=C(N)N=C(N)N1c1ccc(CCc2ccc(N3C(N)=NC(N)=NC3(C)C)cc2)cc1.Cl.Cl; 4
CC1(C)N=C(N)N=C(N)N1c1ccc(Oc2ccc(N3C(N)=NC(N)=NC3(C)C)cc2)cc1.Cl.Cl; 2
CC1(C)N=C(N)N=C(N)N1c1ccc(/C=C/c2ccc(N3C(N)=NC(N)=NC3(C)C)cc2)cc1.Cl.Cl; 5
COc1cc(-c2ccc(N3C(N)=NC(N)=NC3(C)C)c(OC)c2)ccc1N1C(N)=NC(N)=NC1(C)C.Cl.Cl; 3
CC1(C)N=C(N)N=C(N)N1c1ccc2c(c1)Cc1cc(N3C(N)=NC(N)=NC3(C)C)ccc1-2.Cl.Cl; 3

###

System: Mus musculus
Assay: Antitrypanosomal activity was evaluated against Trypanosoma rhodesiense infections in mice, at dose 6.6 mg/kg, administered subcutaneously;Cures
Format: functional
Details: route subcutaneous
parameterMeasured: Cures

CC1(C)N=C(N)N=C(N)N1c1ccc2c(c1)Cc1cc(N3C(N)=NC(N)=NC3(C)C)ccc1-2.Cl.Cl; 2
CC1(C)N=C(N)N=C(N)N1c1ccc(CCc2cccc(N3C(N)=NC(N)=NC3(C)C)c2)cc1.Cl.Cl; 1
CC1(C)N=C(N)N=C(N)N1c1ccc(/C=C/c2ccc(N3C(N)=NC(N)=NC3(C)C)cc2)cc1.Cl.Cl; 3
CC1(C)N=C(N)N=C(N)N1c1ccc(Oc2ccc(N3C(N)=NC(N)=NC3(C)C)cc2)cc1.Cl.Cl; 1
COc1cc(-c2ccc(N3C(N)=NC(N)=NC3(C)C)c(OC)c2)ccc1N1C(N)=NC(N)=NC1(C)C.Cl.Cl; 3
